# System: KARPAS-422 (B-Cell Non-Hodgkin's Lymphoma);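 further: after 72 h of two-drug dosing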
# Run description: Bliss excess, mean over the matrix (fraction); higher = more synergy
Items are presented alongside their recorded Bliss excess.

| Molecule | Bliss excess |
| --- | --- |
| C[C@@H](c1ccc2nccn2c1)n1nnc2ncc(-c3cnn(C)c3)nc21 [Savolitinib] + CC1(C)CCC(CN2CCN(c3ccc(C(=O)NS(=O)(=O)c4ccc(NCC5CCOCC5)c([N+](=O)[O-])c4)c(Oc4cnc5[nH]ccc5c4)c3)CC2)=C(c2ccc(Cl)cc2)C1 [Venetoclax] (first compound max 1 µM, 7x7, partner max 1 µM) | -0.0282 |
| Cn1cnc2c(F)c(Nc3ccc(Br)cc3Cl)c(C(=O)NOCCO)cc21 [Selumetinib] + C[C@@H]1COCCN1C2=NC(=NC(=C2)C3(CC3)[S@](=N)(=O)C)C4=C5C=CNC5=NC=C4 [AZD6738] (first compound max 10 µM, 7x7, partner max 10 µM) | -0.0396 |
| CN(C)CCCOc1ccc(-c2ccc3ncc4c(c3c2)n(C2CCOCC2)c(=O)n4C)cn1 [AZD0156] + C[C@@H]1COCCN1C2=NC(=NC(=C2)C3(CC3)[S@](=N)(=O)C)C4=C5C=CNC5=NC=C4 [AZD6738] (first compound max 1 µM, 7x7, partner max 10 µM) | -0.0444 |
